EXPERIMENT_SUMMARY: NCI Yeast Anticancer Drug Screen. Data for the bub3 strain (AID 167)
RUN_PARAMETERS: S. cerevisiae bub3 mutant strain, at 50.0 µM, active compounds read high
Protocol: Growth inhibition of yeast strains with defined genetic alterations is measured as a screen for potential anti-cancer activity. Selected strains with alterations in DNA damage repair or cell cycle control were exposed to compounds and growth inhibition was measured relative to vehicle treated controls. The strain used in this assay is bub3
Compounds without any hit were thinned out: in the full panel of roughly 79,000, 15% have a hit. The source made the active and inactive calls. Cut-off read from the data, not from the text of the source: active = growth inhibition above about 70%; inactive = the rest.
ASSAY_ENDPOINT: growth inhibition

Request: Quick one: growth inhibition for CC(C)(Br)[N+](=O)[O-] ?
Result: 10.8% (inactive)

Request: Quick one: growth inhibition for CC1CCCCN1 (configuration not stated) ?
Result: 13.5% (inactive)

Request: Quick one: growth inhibition for CCOC(=O)C(C[Si](C)(C)C)P(=O)(OCC)OCC (configuration not stated) ?
Result: -26.7% (inactive)

Request: Quick one: growth inhibition for NNC(=O)c1ccccc1 ?
Result: -1.25% (inactive)

Request: Quick one: growth inhibition for CC([Se])=Nc1ccc(Br)cc1 ?
Result: -1.45% (inactive)

Request: Quick one: growth inhibition for O=C1NC(=O)C(Cc2cccc(OCc3ccccc3)c2)C(=O)N1 ?
Result: 0.1% (inactive)

Request: Quick one: growth inhibition for CNC(=O)Oc1cccc(N)c1 ?
Result: -22.1% (inactive)

----------
EXPERIMENT_SUMMARY: NCI Yeast Anticancer Drug Screen. Data for the sgs1 mgt1 strain (AID 161);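 note: 0% = growth of cultures given vehicle only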
RUN_PARAMETERS: S. cerevisiae sgs1 mgt1 strain, at 50.0 µM, active compounds read high
About 79,000 compounds went through this panel and 15% of them were active in at least one assay; those are over-represented in the sample as a whole.
Please use Fulfilled whenever growth inhibition is not below 30%, and Not fulfilled whenever it is.

Request: Does growth inhibition meet or surpass 30% for CCCCOC(=O)c1ccccc1C(=O)OCc1ccccc1 ?
Result: Not fulfilled

Request: Does growth inhibition meet or surpass 30% for O=C1Cc2ccccc2C(=O)N1CCN1CCOCC1 ?
Result: Not fulfilled

Request: Does growth inhibition meet or surpass 30% for O=C(CC(=O)c1ccccc1)c1ccccc1.[Tl] ?
Result: Fulfilled

Request: Does growth inhibition meet or surpass 30% for C[CH2][Sn]([I])([CH2]C)[CH2]C ?
Result: Fulfilled

Request: Does growth inhibition meet or surpass 30% for CC1(C)N=C(N)N=C(N)N1c1ccc(CCCCc2cc(Cl)ccc2S(=O)(=O)F)c(Cl)c1 ?
Result: Fulfilled

Request: Does growth inhibition meet or surpass 30% for O=CC1(c2ccccc2)CCN(Cc2ccccc2)CC1 ?
Result: Fulfilled

Request: Does growth inhibition meet or surpass 30% for C=CCN1CC2CN=NC2(C#N)C1 (centres undefined) ?
Result: Not fulfilled

Request: Does growth inhibition meet or surpass 30% for CCOC(=O)c1ccccc1C(=O)OCC ?
Result: Not fulfilled

Request: Does growth inhibition meet or surpass 30% for O=C(COc1cccc(Cl)c1)NCc1ccccc1NC(=O)c1ccc(S(=O)(=O)F)cc1 ?
Result: Fulfilled

Request: Does growth inhibition meet or surpass 30% for Cc1ccc(S(N)(=O)=O)cc1 (tested in a mixture with another compound) ?
Result: Not fulfilled

Request: Does growth inhibition meet or surpass 30% for ClCCN(CCCl)c1cc(Cl)ccc1Oc1ccccc1 ?
Result: Not fulfilled

Request: Does growth inhibition meet or surpass 30% for CCOP(=O)(O)OCC.[Y] ?
Result: Not fulfilled

Request: Does growth inhibition meet or surpass 30% for Cc1cc(S(=O)(=O)F)ccc1NC(=O)NCc1ccc([N+](=O)[O-])cc1 ?
Result: Not fulfilled

Request: Does growth inhibition meet or surpass 30% for ClCCN(CCCl)c1ccc(/C=N\N=C\c2ccncc2)cc1 ?
Result: Not fulfilled

Request: Does growth inhibition meet or surpass 30% for [Cu].[NH2-].[NH2-].[NH2-].[NH2-] ?
Result: Not fulfilled

Request: Does growth inhibition meet or surpass 30% for O=C1NCN(c2ccccc2)C12CCN(Cc1ccccc1)CC2 ?
Result: Not fulfilled

Request: Does growth inhibition meet or surpass 30% for O=C1NC(=S)NC(=O)C1=Cc1ccco1 ?
Result: Not fulfilled

Request: Does growth inhibition meet or surpass 30% for Cc1cc(NC(=O)CCc2ccc(N)cc2)ccc1S(=O)(=O)F ?
Result: Fulfilled

Request: Does growth inhibition meet or surpass 30% for COC(=O)CCCCCCCCCCN(CCCl)CCCl ?
Result: Fulfilled
